test.system: Metabotropic glutamate receptor 8 (Rattus norvegicus, UniProt P70579)
Sequence (P70579 whole entry): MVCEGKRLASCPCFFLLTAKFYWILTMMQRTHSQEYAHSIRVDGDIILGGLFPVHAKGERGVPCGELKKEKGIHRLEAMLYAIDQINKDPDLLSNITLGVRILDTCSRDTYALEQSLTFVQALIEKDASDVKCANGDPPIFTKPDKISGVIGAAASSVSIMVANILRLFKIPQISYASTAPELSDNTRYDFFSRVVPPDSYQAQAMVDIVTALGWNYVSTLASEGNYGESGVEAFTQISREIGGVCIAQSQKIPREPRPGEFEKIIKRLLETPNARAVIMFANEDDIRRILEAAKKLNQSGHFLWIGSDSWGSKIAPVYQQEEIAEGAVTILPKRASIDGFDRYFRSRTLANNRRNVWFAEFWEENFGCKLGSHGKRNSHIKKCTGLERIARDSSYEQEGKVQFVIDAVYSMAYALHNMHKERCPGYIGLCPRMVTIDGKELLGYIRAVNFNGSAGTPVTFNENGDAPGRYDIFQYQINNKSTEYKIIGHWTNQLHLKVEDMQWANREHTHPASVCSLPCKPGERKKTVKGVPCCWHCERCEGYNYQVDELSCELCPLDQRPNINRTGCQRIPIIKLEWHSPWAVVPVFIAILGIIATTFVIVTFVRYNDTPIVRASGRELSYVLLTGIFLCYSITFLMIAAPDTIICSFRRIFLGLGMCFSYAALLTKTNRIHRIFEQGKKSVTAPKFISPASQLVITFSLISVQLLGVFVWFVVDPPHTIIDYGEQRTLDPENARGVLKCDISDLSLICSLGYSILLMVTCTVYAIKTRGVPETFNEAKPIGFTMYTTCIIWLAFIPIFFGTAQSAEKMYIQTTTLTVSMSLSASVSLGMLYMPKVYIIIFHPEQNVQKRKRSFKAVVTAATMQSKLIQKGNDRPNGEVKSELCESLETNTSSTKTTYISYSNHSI
measurement.description: Agonist activity at rat mGlu8 receptor expressed in HEK293 cells assessed as IP1 accumulation by IP-One functional assay
Type: cell-based
quantity.kind: EC50 (µM)

>  <compound>
N[C@@H](C[C@@]1(C(=O)O)C[C@@H]1C(=O)O)C(=O)O

>  <test.system>
Metabotropic glutamate receptor 8 (Rattus norvegicus, UniProt P70579)

>  <measurement.units>
µM

>  <data.value>
20.8

$$$$

I. N[C@@H](CCC(=O)O)C(=O)O [GLUTAMIC ACID]
II. N[C@@H](C[C@]1(C(=O)O)C[C@H]1C(=O)O)C(=O)O
Input line: Could you check which of I and II has a smaller value for EC50? State the label of the item chosen.
Output line: II
(II: 0.68 µM, I: 14 µM)

###

test.system: Metabotropic glutamate receptor 3 (Rattus norvegicus)
Sequence (P31422 whole entry): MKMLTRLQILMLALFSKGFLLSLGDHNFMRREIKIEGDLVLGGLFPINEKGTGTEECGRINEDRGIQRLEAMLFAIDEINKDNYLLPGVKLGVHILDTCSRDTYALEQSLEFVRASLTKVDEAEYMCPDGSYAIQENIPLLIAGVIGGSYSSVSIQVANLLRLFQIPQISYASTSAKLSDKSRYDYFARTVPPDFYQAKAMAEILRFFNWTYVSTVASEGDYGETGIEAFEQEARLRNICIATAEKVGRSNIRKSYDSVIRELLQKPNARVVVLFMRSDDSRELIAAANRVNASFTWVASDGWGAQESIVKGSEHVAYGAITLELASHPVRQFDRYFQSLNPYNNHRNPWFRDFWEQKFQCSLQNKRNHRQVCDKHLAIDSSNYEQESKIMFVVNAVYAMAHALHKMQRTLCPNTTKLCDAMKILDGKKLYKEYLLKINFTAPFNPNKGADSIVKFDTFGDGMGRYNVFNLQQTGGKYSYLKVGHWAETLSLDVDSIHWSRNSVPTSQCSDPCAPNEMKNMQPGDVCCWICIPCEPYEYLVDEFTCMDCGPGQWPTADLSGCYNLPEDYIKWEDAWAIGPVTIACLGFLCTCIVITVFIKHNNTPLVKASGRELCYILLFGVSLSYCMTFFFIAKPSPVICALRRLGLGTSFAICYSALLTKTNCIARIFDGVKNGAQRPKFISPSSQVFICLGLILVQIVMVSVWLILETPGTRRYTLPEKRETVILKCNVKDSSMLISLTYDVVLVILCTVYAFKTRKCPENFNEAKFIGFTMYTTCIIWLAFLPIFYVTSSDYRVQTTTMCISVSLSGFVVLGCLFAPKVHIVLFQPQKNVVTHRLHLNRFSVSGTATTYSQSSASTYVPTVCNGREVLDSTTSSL
measurement.description: Agonist activity at rat mGlu3 receptor expressed in HEK293 cells by [35S]GTP-gamma binding assay
Assay type: cell-based
pEC50: −log10 of the molar value.
quantity.kind: pEC50

Field: example entries. Status: answers known.
>  <smiles.text>
NCC[C@H](C[C@H](N)C(=O)O)C(=O)O

>  <pEC50>
< 3.00

$$$$
>  <smiles.text>
NCCC[C@H](C[C@H](N)C(=O)O)C(=O)O

>  <pEC50>
< 3.00

$$$$
>  <smiles.text>
N#CCC[C@H](C[C@H](N)C(=O)O)C(=O)O

>  <pEC50>
< 3.00

$$$$
>  <smiles.text>
N[C@@H](CCC(=O)O)C(=O)O

>  <pEC50>
7.22

$$$$

Below: the item to evaluate.
Input line: # pEC50 lookup, item N[C@@H](C[C@@H](CC(=O)O)C(=O)O)C(=O)O
Output line: < 3.00

###

Entries and their measured EC50 follow.
test.system: Metabotropic glutamate receptor 7 (Rattus norvegicus)
Sequence (P35400 whole entry): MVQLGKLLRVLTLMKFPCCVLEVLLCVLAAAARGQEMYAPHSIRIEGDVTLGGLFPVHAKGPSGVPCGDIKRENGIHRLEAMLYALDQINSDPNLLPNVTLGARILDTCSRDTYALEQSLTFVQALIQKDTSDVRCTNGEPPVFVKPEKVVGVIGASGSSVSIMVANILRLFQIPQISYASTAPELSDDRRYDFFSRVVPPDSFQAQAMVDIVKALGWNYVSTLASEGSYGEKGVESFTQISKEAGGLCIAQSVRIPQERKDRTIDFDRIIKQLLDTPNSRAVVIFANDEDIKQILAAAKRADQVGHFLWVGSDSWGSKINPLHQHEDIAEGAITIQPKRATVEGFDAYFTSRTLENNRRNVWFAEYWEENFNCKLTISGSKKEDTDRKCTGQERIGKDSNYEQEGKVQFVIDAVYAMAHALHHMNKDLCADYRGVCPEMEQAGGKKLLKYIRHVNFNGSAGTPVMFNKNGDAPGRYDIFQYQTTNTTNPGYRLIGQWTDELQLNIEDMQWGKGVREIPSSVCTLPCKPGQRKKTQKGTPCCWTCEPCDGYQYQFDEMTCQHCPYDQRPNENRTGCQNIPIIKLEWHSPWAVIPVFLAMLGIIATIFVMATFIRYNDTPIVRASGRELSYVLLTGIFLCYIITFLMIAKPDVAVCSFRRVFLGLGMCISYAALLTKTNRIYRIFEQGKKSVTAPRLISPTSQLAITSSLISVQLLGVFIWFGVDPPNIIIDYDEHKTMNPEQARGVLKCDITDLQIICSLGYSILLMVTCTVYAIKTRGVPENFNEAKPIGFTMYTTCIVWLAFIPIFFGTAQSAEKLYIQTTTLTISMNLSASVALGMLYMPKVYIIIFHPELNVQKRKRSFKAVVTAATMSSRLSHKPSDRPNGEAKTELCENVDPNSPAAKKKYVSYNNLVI
measurement.description: Agonist activity at rat mGlu7 receptor expressed in HEK293 cells assessed as IP1 accumulation by IP-One functional assay

>  <smiles.text>
N[C@@H](C[C@]1(C(=O)O)C[C@H]1C(=O)O)C(=O)O

>  <test.system>
Metabotropic glutamate receptor 7 (Rattus norvegicus)

>  <data.value>
120 µM

$$$$

Input line: # EC50 lookup, item N[C@@H](C[C@@]1(C(=O)O)C[C@@H]1C(=O)O)C(=O)O
Output line: > 1000 µM

Input line: # EC50 lookup, item N[C@@H](C[C@]1(C(=O)O)C[C@@H]1C(=O)O)C(=O)O
Output line: > 1000 µM

Input line: # EC50 lookup, item N[C@@H](CCP(=O)(O)O)C(=O)O
Output line: 340 µM

Input line: # EC50 lookup, item N[C@@H](C[C@@]1(C(=O)O)C[C@H]1C(=O)O)C(=O)O
Output line: > 1000 µM

Input line: # EC50 lookup, item N[C@@H](C[C@@H](CCC(=O)O)C(=O)O)C(=O)O
Output line: > 1000 µM

###

Entries and their measured pEC50 follow.
test.system: Metabotropic glutamate receptor 5 (Rattus norvegicus, UniProt P31424)
Sequence (P31424 whole entry): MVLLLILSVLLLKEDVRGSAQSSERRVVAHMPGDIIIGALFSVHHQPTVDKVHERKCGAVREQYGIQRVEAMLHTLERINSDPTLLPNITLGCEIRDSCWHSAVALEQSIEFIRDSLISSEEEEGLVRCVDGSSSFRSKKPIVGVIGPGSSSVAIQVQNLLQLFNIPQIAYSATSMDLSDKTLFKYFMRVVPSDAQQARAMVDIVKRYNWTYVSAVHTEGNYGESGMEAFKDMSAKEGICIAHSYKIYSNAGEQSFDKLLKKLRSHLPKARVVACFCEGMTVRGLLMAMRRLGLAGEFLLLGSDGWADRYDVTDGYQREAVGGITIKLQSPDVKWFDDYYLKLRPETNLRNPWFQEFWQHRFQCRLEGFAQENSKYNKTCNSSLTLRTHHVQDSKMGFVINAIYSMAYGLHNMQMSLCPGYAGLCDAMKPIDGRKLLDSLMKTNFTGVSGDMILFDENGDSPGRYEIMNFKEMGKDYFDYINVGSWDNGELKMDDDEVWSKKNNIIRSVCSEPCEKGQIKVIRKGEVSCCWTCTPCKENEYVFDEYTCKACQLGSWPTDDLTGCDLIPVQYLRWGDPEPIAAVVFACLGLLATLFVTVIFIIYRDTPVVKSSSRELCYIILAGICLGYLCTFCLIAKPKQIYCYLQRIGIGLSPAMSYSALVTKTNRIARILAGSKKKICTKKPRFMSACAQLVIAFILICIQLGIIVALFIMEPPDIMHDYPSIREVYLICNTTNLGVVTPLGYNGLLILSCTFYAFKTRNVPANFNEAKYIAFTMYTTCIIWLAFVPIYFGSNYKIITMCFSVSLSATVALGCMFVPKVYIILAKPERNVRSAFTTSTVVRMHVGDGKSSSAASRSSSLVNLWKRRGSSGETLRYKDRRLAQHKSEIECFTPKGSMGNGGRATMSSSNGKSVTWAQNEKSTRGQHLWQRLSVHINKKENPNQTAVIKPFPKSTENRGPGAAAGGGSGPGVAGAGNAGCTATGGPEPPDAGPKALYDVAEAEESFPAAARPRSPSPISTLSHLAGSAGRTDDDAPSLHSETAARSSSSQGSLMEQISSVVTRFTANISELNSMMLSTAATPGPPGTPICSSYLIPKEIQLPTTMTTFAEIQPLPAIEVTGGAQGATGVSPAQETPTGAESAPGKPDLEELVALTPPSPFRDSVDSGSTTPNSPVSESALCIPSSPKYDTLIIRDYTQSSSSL
measurement.description: Agonist activity at rat mGlu5 receptor expressed in HEK293 cells by intracellular Ca2+ mobilization assay
Format: functional, cell-based
pEC50: −log10 of the molar value.

Field: example entries. Status: answers known.
>  <smiles.text>
N[C@@H](C[C@@H](CCC(=O)NO)C(=O)O)C(=O)O

>  <pEC50>
< 3.00

$$$$
>  <smiles.text>
N#CCC[C@H](C[C@H](N)C(=O)O)C(=O)O

>  <pEC50>
< 3.00

$$$$
>  <smiles.text>
COC(=O)CC[C@H](C[C@H](N)C(=O)O)C(=O)O

>  <pEC50>
< 3.00

$$$$
>  <smiles.text>
NCC[C@H](C[C@H](N)C(=O)O)C(=O)O

>  <pEC50>
< 3.00

$$$$
>  <smiles.text>
NCCC[C@H](C[C@H](N)C(=O)O)C(=O)O

>  <pEC50>
< 3.00

$$$$
>  <smiles.text>
NC(=O)CC[C@H](C[C@H](N)C(=O)O)C(=O)O

>  <pEC50>
< 3.00

$$$$
>  <smiles.text>
N[C@@H](C[C@@H](CC(=O)O)C(=O)O)C(=O)O

>  <pEC50>
< 3.00

$$$$
>  <smiles.text>
N[C@@H](C[C@@H](CCC(=O)O)C(=O)O)C(=O)O

>  <pEC50>
< 3.00

$$$$
>  <smiles.text>
CN(O)C(=O)CC[C@H](C[C@H](N)C(=O)O)C(=O)O

>  <pEC50>
< 3.00

$$$$

Input line: # pEC50 lookup, item CNC(=O)CC[C@H](C[C@H](N)C(=O)O)C(=O)O
Output line: < 3.00
